TGI by entry:
- System: HCT-116 colon
- MEASUREMENT DESCRIPTION: NCI tumour cell line growth inhibition, 48 h
EXPERIMENTAL READOUT: TGI (µM)

1. CCOC(=O)c1[nH]n(-c2ccccc2)c(=O)c1C=NC(=S)C(N)=S; 44.6
2. COc1cc(C2c3cc4c(cc3[C@@H](Nc3ccc(N5CCOCC5)cc3)C3COC(=O)[C@H]23)OCO4)cc(OC)c1O (stereo partly drawn); 13.7
3. O=C(Nc1ccccc1)OCc1nc2c([nH]1)C(=O)C=CC2=O; 28.4
4. Cc1ccc2oc(=O)cc(C3c4ccc([nH]4)C(c4cc(=O)oc5ccc(C)cc45)c4ccc([nH]4)C(c4cc(=O)oc5ccc(C)cc45)c4ccc([nH]4)C(c4cc(=O)oc5ccc(C)cc45)c4ccc3[nH]4)c2c1 (stereo not drawn); 0.28

Values from PubChem BioAssay (NCI)
